tested target: human TLR8 (Homo sapiens)
Sequence (Q9NR97 27-1041): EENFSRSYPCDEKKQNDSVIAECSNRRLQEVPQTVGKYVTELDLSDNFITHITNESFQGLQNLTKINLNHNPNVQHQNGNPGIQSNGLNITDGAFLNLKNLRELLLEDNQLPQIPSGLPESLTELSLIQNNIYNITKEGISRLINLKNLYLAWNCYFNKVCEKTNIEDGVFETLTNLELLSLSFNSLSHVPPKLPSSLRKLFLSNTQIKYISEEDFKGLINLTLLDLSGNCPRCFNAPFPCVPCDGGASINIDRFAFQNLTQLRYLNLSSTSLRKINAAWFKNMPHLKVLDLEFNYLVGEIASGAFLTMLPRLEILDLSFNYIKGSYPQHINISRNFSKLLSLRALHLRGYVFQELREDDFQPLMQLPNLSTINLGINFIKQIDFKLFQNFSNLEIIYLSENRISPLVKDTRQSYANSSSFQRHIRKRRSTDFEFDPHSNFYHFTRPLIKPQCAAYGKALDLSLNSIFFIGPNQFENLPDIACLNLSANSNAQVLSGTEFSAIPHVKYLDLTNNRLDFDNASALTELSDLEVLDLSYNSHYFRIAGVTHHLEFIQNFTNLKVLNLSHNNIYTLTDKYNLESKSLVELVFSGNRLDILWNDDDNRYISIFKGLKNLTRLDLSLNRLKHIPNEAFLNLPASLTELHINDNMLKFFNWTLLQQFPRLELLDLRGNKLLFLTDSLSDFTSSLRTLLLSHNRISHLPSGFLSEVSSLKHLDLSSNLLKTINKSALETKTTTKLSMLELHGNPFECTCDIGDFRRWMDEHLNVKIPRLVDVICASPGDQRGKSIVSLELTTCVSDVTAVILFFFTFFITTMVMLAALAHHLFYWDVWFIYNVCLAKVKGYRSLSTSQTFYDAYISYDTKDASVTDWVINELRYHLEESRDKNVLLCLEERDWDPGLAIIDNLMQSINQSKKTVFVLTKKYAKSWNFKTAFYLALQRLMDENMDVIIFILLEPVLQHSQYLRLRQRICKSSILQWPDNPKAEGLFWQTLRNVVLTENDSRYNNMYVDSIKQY
method summary: TLR8 inhibition reporter assay (HEK-Blue cells, secreted embryonic alkaline phosphatase reporter)
particulars: HEK-Blue cells overexpressing human TLR8, stimulated with R848 15.9 μM; read-out: TLR 8 IC50
assay readout: IC50

# annotated cases, reported IC50 shown
INSERT INTO measurements (compound, tested_target, assay_readout, endpoint_result) VALUES
  ('COc1ccc(-c2nc3ccc(-c4ccc(CN5CCC(N(C)C)CC5)cc4)cc3n2C)cc1', 'human TLR8 (Homo sapiens)', 'IC50', '1.4 µM'),
  ('COc1ccc(-c2nc3c(C)cc(C4CCN(C5CC6CCC(C5)N6CC(C)C)CC4)cc3[nH]2)cc1OC (single isomer, unassigned) [Example 20]', 'human TLR8 (Homo sapiens)', 'IC50', '> 50 µM');

Lookup result for Cn1c(-c2ccc(S(C)(=O)=O)cc2)nc2ccc(C3CCN(C4CCCN(C5COC5)CC4)CC3)c(F)c21 (stereo not drawn) [Example 315] ; measured IC50: > 50 µM

These measurements were taken from patent US12492188B2.
